Values from ChEMBL document CHEMBL1153436

Entries and their Ki
molecular target: Cathepsin D (Homo sapiens); test: Inhibition of cathepsin D
Sequence (P07339 65-162 limits assumed): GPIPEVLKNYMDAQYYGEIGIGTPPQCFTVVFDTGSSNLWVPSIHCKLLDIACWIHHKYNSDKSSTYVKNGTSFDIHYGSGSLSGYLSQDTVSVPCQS
Sequence (P07339 169-412 limits assumed): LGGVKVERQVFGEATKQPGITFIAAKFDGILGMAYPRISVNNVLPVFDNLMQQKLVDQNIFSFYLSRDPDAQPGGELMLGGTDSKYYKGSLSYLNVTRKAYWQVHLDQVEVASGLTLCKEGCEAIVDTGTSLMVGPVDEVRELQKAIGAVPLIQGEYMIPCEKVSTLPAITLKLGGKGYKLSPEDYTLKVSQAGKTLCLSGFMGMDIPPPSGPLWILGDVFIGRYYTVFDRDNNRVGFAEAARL
I only need the number, in nM, no unit after it.

Chemical structure: COC(=O)N[C@H](C(=O)N[C@H](Cc1ccc(-c2ccccn2)cc1)C[C@H](O)[C@H](Cc1ccccc1)NC(=O)[C@@H](N1CCN(Cc2cccc(C(C)(C)O)n2)C1=O)C(C)(C)C)C(C)(C)C
Unit info: nM
Ki: 540

Continue with the molecule presented below.
Query for Cathepsin D (Homo sapiens): what Ki does the record show for `COC(=O)N[C@H](C(=O)N[C@@H](Cc1ccc(-c2ccccn2)cc1)C[C@H](O)[C@H](Cc1ccccc1)NC(=O)[C@@H](N1CCN(Cc2ccccc2)C1=O)C(C)(C)C)C(C)(C)C` ?
4300
